target: Human IL-17A (Homo sapiens, UniProt Q16552); assay: IL-17A enzyme-linked immunosorbent assay (competitive ELISA, IL-17A/IL-17Ra receptor-ligand binding); set-up: purchased Sino Biological Inc. 12047-H07B; settings: human IL-17A coated plate, human IL-17Ra, read-out: IC50, inhibitory activity of compounds on human IL-17A
Sequence (Q16552 20-155 limits assumed): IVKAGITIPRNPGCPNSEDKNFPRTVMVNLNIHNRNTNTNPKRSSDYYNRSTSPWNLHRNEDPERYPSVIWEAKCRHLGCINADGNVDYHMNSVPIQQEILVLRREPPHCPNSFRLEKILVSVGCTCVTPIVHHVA
IC50 listing for selected compounds.

Some solved cases for reference:
Cc1[nH]nc2c1-c1cnc(NC(=O)[C@@H](NC(=O)/C(F)=C\C3CC3)C(C3CC3)C3CC3)cc1COCC2    ≤ 50 nM
Cc1[nH]nc2c1-c1cnc(NC(=O)[C@@H](NC(=O)c3ccnn3C(C)C)C(C3CC3)C3CC3)cc1CN(C1(C(F)(F)F)CC1)C(=O)C2    ≤ 50 nM
Cc1[nH]nc2c1-c1cc(F)c(NC(=O)[C@@H](NC(=O)c3ccnn3C3CSC3)C(C3CC3)C3CC3)cc1COCC2    ≤ 50 nM
Cc1[nH]nc2c1-c1cc(F)c(NC(=O)[C@@H](NC(=O)c3conc3C(C)C)C(C3CC3)C3CC3)cc1CN(C(C)C(F)(F)F)C(=O)C2 (mixture of isomers)    ≤ 50 nM
Cc1[nH]nc2c1-c1cc(F)c(NC(=O)[C@@H](NC(=O)c3ccnn3C(C)CF)C(C3CC3)C3CC3)cc1COCC2 (single isomer, unassigned) [compound 42a]    ≤ 50 nM

Now consider a different compound.
// query Any idea what IC50 was measured for "Cn1nccc1C(=O)N[C@H](C(=O)Nc1cc2c(cc1Cl)-c1c[nH]nc1CCOC2)C(C1CC1)C1CC1" ?
// result 150 to 1000 nM

###

Overview of reported pIC50 across a group of molecules:
molecular target: Human IL-17A (Homo sapiens, UniProt Q16552); assay: IL-17A enzyme-linked immunosorbent assay (competitive ELISA, IL-17A/IL-17Ra receptor-ligand binding); parameters: purchased Sino Biological Inc. 12047-H07B; details: human IL-17A coated plate, human IL-17Ra, read-out: IC50, inhibitory activity of compounds on human IL-17A
pIC50: −log10 of the molar value.

Cc1[nH]nc2c1-c1cnc(NC(=O)[C@@H](NC(=O)c3ccnn3C3CC3)C(C3CC3)C3CC3)cc1CN(C1CC1)CC2 [compound 219]    ≥ 7.30
Cc1[nH]nc2c1-c1ccc(NC(=O)[C@@H](NC(=O)c3ccnn3C(C)C)C(C3CC3)C3CC3)cc1CN(C)CC2 [compound 24]    6.82 to 7.30
Cc1[nH]nc2c1-c1cc(F)c(NC(=O)[C@@H](NC(=O)/C(F)=C\C(C)C)C(C3CC3)C3CC3)cc1CN(C(C)C(F)(F)F)C(=O)C2 (mixture of isomers) [compound 250]    ≥ 7.30
[2H]C([2H])([2H])C([2H])(n1nccc1C(=O)N[C@H](C(=O)Nc1ccc2c(c1)COCCc1n[nH]c(C)c1-2)C(C1CC1)C1CC1)C([2H])([2H])[2H] [compound 52]    ≥ 7.30
CCn1nccc1C(=O)N[C@H](C(=O)Nc1cc2c(cc1F)-c1c(n[nH]c1C)CCN(CC(F)F)C2)C(C1CC1)C1CC1 [compound 159]    ≥ 7.30

Now for a further molecule.
// query What value of measured pIC50 is listed for CCn1nccc1C(=O)N[C@H](C(=O)Nc1cc2c(cn1)-c1c(n[nH]c1C)CCOC2)C(C1CC1)C1CC1 [compound 53] ?
// result ≥ 7.30
